This collection of values is drawn from patent US20030092644A1.

Test system: cells infected with Influenza A
Test: Cytotoxicity in Influenza A assay
Assay type: cell-based
Details: read-out: Cytotoxicity (CC50) INFL. A
readout name: CC50

QUERY: Could you share which CC50 value was measured for NC(=O)c1ncn([C@H]2O[C@@H](CO)[C@H](O)[C@@H]2O)n1 [Levovirin™] ?
RESULT: > 200 µM

###

System: Hepatitis B (HBV)
Test: microbe, parasite or virus in culture
Assay type: cell-based
Conditions: read-out: Dir. Antiviral activity (EC50) HBV
pEC50: −log10 of the molar value.
readout name: pEC50

molecule: NC(=O)c1ncn([C@@H]2O[C@H](CO)[C@@H](O)[C@H]2O)n1 [Ribavirin]
pEC50: < 4.00

QUERY: Could you share which pEC50 value was measured for NC(=O)c1ncn([C@H]2O[C@@H](CO)[C@H](O)[C@@H]2O)n1 [Levovirin™] ?
RESULT: < 4.00
